Experimental Target: ϕMalE-NapAsp^His A17Q variant (E. coli)
Assay: ITC
pKd: −log10 of the molar value.
Recorded Metric: pKd

Consider the worked cases shown below.
NapD T59I (NapD^His variant) (natural protein) MHTNWQVCSLVVQAKSERISDISTQLNAFPGCEVAVSDAPSGQLIVVVEAEDSETLIQIIESVRNVEGVLAVSLVYHQQEEQGEETP    6.20
NapD^His (natural protein) MHTNWQVCSLVVQAKSERISDISTQLNAFPGCEVAVSDAPSGQLIVVVEAEDSETLIQTIESVRNVEGVLAVSLVYHQQEEQGEETP    5.96

(A) NapD A71T (NapD^His variant) (natural protein) MHTNWQVCSLVVQAKSERISDISTQLNAFPGCEVAVSDAPSGQLIVVVEAEDSETLIQTIESVRNVEGVLTVSLVYHQQEEQGEETP
(B) NapD A14T (NapD^His variant) (natural protein) MHTNWQVCSLVVQTKSERISDISTQLNAFPGCEVAVSDAPSGQLIVVVEAEDSETLIQTIESVRNVEGVLAVSLVYHQQEEQGEETP
Exam item: Consider entries A and B . Which has the numerically lower pKd? Give the label of your selection.
Marked response: B
